# METHOD_DESCRIPTION: Toxicity liver stage against HepG2, at 10uM
# Format: cell-based
# Design: test concentration 10 uM, cell line HepG2-A16-CD81EGFP
# CONDITION_SUMMARY: human, HepG2-A16-CD81EGFP cells; read-out: INHIBITION
Measured cytotoxicity at 10 µM values are reported for all entries that follow.
MEASURED_QUANTITY: cytotoxicity at 10 µM (%)

{"COMPOUND": "Clc1cc(NCc2ncc[nH]2)nc2[nH]ccc12", "MEASURED_QUANTITY": "cytotoxicity at 10 µM", "UNIT_ABBREVIATION": "%", "RESULT_NUMBER": 6.68}
{"COMPOUND": "CC1(C)CC1(C(=O)N1CC(c2cccnc2)C1)c1ccccc1F (stereo not drawn)", "MEASURED_QUANTITY": "cytotoxicity at 10 µM", "UNIT_ABBREVIATION": "%", "RESULT_NUMBER": -10.7}
{"COMPOUND": "NC(=O)C1CCN(C(=O)c2ccn(-c3ccc(F)cc3)n2)C1 (stereo not drawn)", "MEASURED_QUANTITY": "cytotoxicity at 10 µM", "UNIT_ABBREVIATION": "%", "RESULT_NUMBER": -6.02}
{"COMPOUND": "CC(C)(C)c1cn2nc(N3CCOC(Cn4cncn4)C3)sc2n1 (stereo not drawn)", "MEASURED_QUANTITY": "cytotoxicity at 10 µM", "UNIT_ABBREVIATION": "%", "RESULT_NUMBER": -2.63}
{"COMPOUND": "CN(C)S(=O)(=O)N1CC[C@]2(C[C@@H](OCc3ccccn3)CO2)C1", "MEASURED_QUANTITY": "cytotoxicity at 10 µM", "UNIT_ABBREVIATION": "%", "RESULT_NUMBER": 10.1}
{"COMPOUND": "CCc1nc(NCC2CCCN(C(=O)C3CC3)C2)c2cnn(C)c2n1 (stereo not drawn)", "MEASURED_QUANTITY": "cytotoxicity at 10 µM", "UNIT_ABBREVIATION": "%", "RESULT_NUMBER": 1.14}
{"COMPOUND": "Cc1ccc(C(=O)N2CCc3ncc(Cn4cccn4)n3CC2)o1", "MEASURED_QUANTITY": "cytotoxicity at 10 µM", "UNIT_ABBREVIATION": "%", "RESULT_NUMBER": 2.31}
{"COMPOUND": "Cc1cnc(NS(=O)(=O)c2cccc(C#N)c2)s1", "MEASURED_QUANTITY": "cytotoxicity at 10 µM", "UNIT_ABBREVIATION": "%", "RESULT_NUMBER": 15}
{"COMPOUND": "Cc1nn(C)cc1C(=O)N1CCC(CSc2ccccc2)C1 (stereo not drawn)", "MEASURED_QUANTITY": "cytotoxicity at 10 µM", "UNIT_ABBREVIATION": "%", "RESULT_NUMBER": 2.84}
{"COMPOUND": "CCC(C)n1cnc(S(=O)(=O)N(C)C)c1 (stereo not drawn)", "MEASURED_QUANTITY": "cytotoxicity at 10 µM", "UNIT_ABBREVIATION": "%", "RESULT_NUMBER": -7.07}
{"COMPOUND": "Cc1ccc(-c2nc(CN3CCN(S(=O)(=O)N(C)C)CC3)cs2)o1", "MEASURED_QUANTITY": "cytotoxicity at 10 µM", "UNIT_ABBREVIATION": "%", "RESULT_NUMBER": 6.81}
{"COMPOUND": "CCc1ncc(CN2CCCN(CC3CC3)C(C(C)C)C2)cn1 (stereo not drawn)", "MEASURED_QUANTITY": "cytotoxicity at 10 µM", "UNIT_ABBREVIATION": "%", "RESULT_NUMBER": -6.03}
{"COMPOUND": "CCCc1nnsc1C(=O)NCC(O)c1ccc(SC)cc1 (stereo not drawn)", "MEASURED_QUANTITY": "cytotoxicity at 10 µM", "UNIT_ABBREVIATION": "%", "RESULT_NUMBER": 1.71}
{"COMPOUND": "Cc1cc(CS(=O)(=O)CC(=O)N2c3ccccc3CC2C)no1 (stereo not drawn)", "MEASURED_QUANTITY": "cytotoxicity at 10 µM", "UNIT_ABBREVIATION": "%", "RESULT_NUMBER": -0.284}
{"COMPOUND": "Cc1nc(CN2CC[C@H]3C[C@H](c4ccncn4)O[C@@H]3C2)cs1", "MEASURED_QUANTITY": "cytotoxicity at 10 µM", "UNIT_ABBREVIATION": "%", "RESULT_NUMBER": -144}
{"COMPOUND": "CSC1=Nc2c(cnn2-c2ccc(Cl)cc2)C2=NCCCN12", "MEASURED_QUANTITY": "cytotoxicity at 10 µM", "UNIT_ABBREVIATION": "%", "RESULT_NUMBER": 7.41}
{"COMPOUND": "CNC(=O)c1ccc(C(=O)N2CCCC(n3nc(C)cc3C)C2)cn1 (stereo not drawn)", "MEASURED_QUANTITY": "cytotoxicity at 10 µM", "UNIT_ABBREVIATION": "%", "RESULT_NUMBER": -5.61}
{"COMPOUND": "COc1ccc2c(c1)CN(Cc1ccco1)C(=O)CCN2", "MEASURED_QUANTITY": "cytotoxicity at 10 µM", "UNIT_ABBREVIATION": "%", "RESULT_NUMBER": -2.59}
